Assay: Cellular Toxicity (caspase-3) Hek293 (AID 664);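 further: cells exposed to compound for 16 h at 37 °C before readout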
Conditions: HEK293 caspase-3 activation, DMSO = 0%, 100 µM tamoxifen = 100%; at 92.2 µM (top of the series)
Excerpt: NIH Chemical Genomics Center [NCGC] NIH Molecular Libraries Screening Centers Network [MLSCN] National Institutes of Environmental Health Sciences [NIEHS] National Toxicology Program [NTP] We have developed a 1536-well cell-based assay for quantitative high throughput screening (qHTS) against a number of cell lines to determine in vitro caspase 3/7 of small molecules. […] 8. Detection; Luminescence; Viewlux plate reader […]
Results filed as inconclusive are left out. Calls of active or inactive are those of the source. The call rests on the fitted dose curve; in most records, active means well fitted activation curve with a large enough effect; inconclusive means small, poorly fitted or top-dose-only effect; inactive means flat fitted curve, though single readings scatter.
Outcomes: active, inactive

{"Smiles Str": "CC(=O)Oc1ccccc1C(=O)Nc1ncc([N+](=O)[O-])s1", "Assigned Label": "inactive"}
{"Smiles Str": "Cc1noc(NS(=O)(=O)c2ccc(N)cc2)c1C", "Assigned Label": "inactive"}
{"Smiles Str": "Cc1ccnc2c1NC(=O)c1cccnc1N2C1CC1", "Assigned Label": "inactive"}
{"Smiles Str": "CC(=O)[C@H]1CC[C@H]2[C@@H]3CCC4=CC(=O)CC[C@]4(C)[C@H]3CC[C@]12C", "Assigned Label": "active"}
{"Smiles Str": "Cc1ncc([N+](=O)[O-])n1CCO", "Assigned Label": "inactive"}
{"Smiles Str": "N=C(N)c1ccc(OCCCCCOc2ccc(C(=N)N)cc2)cc1", "Assigned Label": "inactive"}
